// data source = PubChem BioAssay (NCI)

Test system: M14 melanoma
Assay: NCI tumour cell line growth inhibition, 48 h; in the data active = GI50 below about 0.43 µM; inactive = the rest
Classes used: active, inactive

- COc1cccc2c1C(=O)c1c(O)c3c(c(O)c1C2=O)C[C@@](O)(C(=O)CO)CC3OC1CC(NCCCCC(OC(C)=O)OC(C)=O)C(O)C(C)O1 (some centres undefined): active
- CC[C@@]1(O)C(=O)N(CCN(C)C)Cc2c1cc1n(c2=O)Cc2cc3ccccc3nc2-1: inactive
- Clc1ccc2c(NCCNc3nc(Cl)nc4ccccc34)ccnc2c1: inactive
- COc1cc(C2CC(c3cc(Cl)c(C)cc3O)=NN2c2ccc(S(N)(=O)=O)cc2)cc(OC)c1OC (centres undefined): inactive

* * *

Tested on: UO-31 renal
Experiment: NCI tumour cell line growth inhibition, 48 h
Reported log10(TGI) values for the following compounds.
MEASURED_PARAMETER: log10(TGI) (log10 of the value in µM)

* CCCCOc1nc2ccccc2cc1C1CNC(=O)c2ccccc2N1 (stereo unspecified) | 1.30
* BrCC[N+]12CCCN1CCC2 | 1.59
* O=C1/C(=C/Cc2ccco2)N=C(c2ccccc2)N1c1nc2c(Cl)cc(Cl)cc2s1 | 1.86
* COC(=O)C1=C(c2cc(OC)c(OC)c(OC)c2)OC(c2cc(OC)c(OC)c(OC)c2)C1 (stereo unspecified) | 1.60
* Oc1[nH]c2ccccc2c1N=NC(=S)NCc1ccccn1 | 0.82
* c1cc[c]([Sn]([O]c2cccc3cccnc23)([c]2ccccc2)[c]2ccccc2)cc1 | -1.52

* * *

Tested on: HL-60(TB) leukemia
Assay: NCI tumour cell line growth inhibition, 48 h
MEASURED_PARAMETER: TGI

- Cn1cc(C2=C(c3cn(C)c4cc(Cl)ccc34)C(=O)NC2=O)c2ccccc21: 0.241 µM
- O=C(Nc1ccccc1C(=O)O)C(=Cc1ccccc1O)NC(=O)c1ccccc1: > 100 µM
- O=C(N(C1=CCCC1)N(c1ccccc1)c1ccccc1)C(F)(F)F: 46.8 µM
- CCOC(=O)CCN1C(=O)c2c(NC(=O)C(=O)O)cccc2S1(=O)=O: > 100 µM

* * *

System: SK-MEL-5 melanoma
Experiment: NCI tumour cell line growth inhibition, 48 h
Reported TGI values for the following molecules.
MEASURED_PARAMETER: TGI

• COc1ccc2nc(NC(=O)C(=O)C(C#N)c3ccc(CC#N)cc3)sc2c1 (stereo unspecified) = > 100 µM
• O=C(CN1CCN(c2cc3c(cc2F)c(=O)c(C(=O)O)cn3C2CC2)CC1)Nc1ccc(C(=O)/C=C/c2ccccc2)cc1 = 13 µM
• CCOC(=O)/C=C/C(Br)=C(Br)/C=C/C(=O)OCC = 27.7 µM
• CC(C)N(C(=O)C12C3C4C5C3C1(C(=O)N(C(C)C)C(C)C)C5C42)C(C)C (stereo unspecified) = > 100 µM
• O=C(O)CCC(NC(=O)/C(=C/c1ccccc1)NC(=O)c1ccccc1)C(=O)O (stereo unspecified) = > 100 µM
• CCc1cc(Nc2nccc(-c3c(-c4ccc(OC)c(C(=O)Nc5c(F)cccc5F)c4)nc4ccccn34)n2)c(OC)cc1N1CCC(N2CCN(S(C)(=O)=O)CC2)CC1 = > 100 µM
• CC(C)(C)C1=CC(O)(c2c3ccccc3c(C3(O)C=C(C(C)(C)C)C(=O)C(C(C)(C)C)=C3)c3ccccc23)C=C(C(C)(C)C)C1=O = > 100 µM
• O=C(N/N=C\c1cc(Br)cc(Br)c1O)N/N=C/c1cc(Br)cc(Br)c1O = 4.69 µM
• [O-][n+]1cc(SCc2ccccc2)ncc1SCc1ccccc1 = > 10 µM
• COc1ccc(OC)c([N+](=O)[O-])c1-c1nc2sc(C)cn2c1/C=N/N=C(N)N = 49.9 µM
• Cc1cc(C)c(N)c(CO)c1 = > 100 µM
• C/C(=C\c1ccccc1)n1c(=O)cc(C)n1C = > 100 µM
• BrCC[N+]12CCCN1CCC2 = 34.3 µM
• Cc1cncc2cccc(S(=O)(=O)N3CCCNC[C@@H]3C)c12 = > 100 µM
• N#CC(N)(C(=O)C(=O)NCCCNC(=O)C(=O)C(N)(C#N)c1ccc(Cl)cc1)c1ccc(Cl)cc1 (stereo unspecified) = > 100 µM
• COc1cc(OC)cc(-c2nc3ccccc3c(=O)[nH]2)c1 = > 100 µM
• COC(=O)C([O][Ge]([CH3])([CH3])[CH3])c1ccccc1 (stereo unspecified) = > 100 µM
• COc1ccc(C2C3=C(COC3=O)N(CCO)c3cc4c(cc32)CCC4)cc1OC (stereo unspecified) = > 50 µM
• O=S1(=O)OCCOS(=O)(=O)C1S(=O)(=O)c1cccc2ccccc12 = > 100 µM
• N#CSc1cc(-c2nc3ccccc3o2)ccc1N = 29.2 µM
• CCN1CCN(c2nc(NNC(=O)c3cccc(OC)c3)nc(N3CCN(C(c4ccccc4)c4ccccc4)CC3)n2)CC1 = 3 µM
